Below, each entry is listed alongside its reported log10(IC50).
# subjectOfTest: Cdk6/CyclinD3 (Homo sapiens (Human), UniProt Q00534)
# Sequence (Q00534 whole entry): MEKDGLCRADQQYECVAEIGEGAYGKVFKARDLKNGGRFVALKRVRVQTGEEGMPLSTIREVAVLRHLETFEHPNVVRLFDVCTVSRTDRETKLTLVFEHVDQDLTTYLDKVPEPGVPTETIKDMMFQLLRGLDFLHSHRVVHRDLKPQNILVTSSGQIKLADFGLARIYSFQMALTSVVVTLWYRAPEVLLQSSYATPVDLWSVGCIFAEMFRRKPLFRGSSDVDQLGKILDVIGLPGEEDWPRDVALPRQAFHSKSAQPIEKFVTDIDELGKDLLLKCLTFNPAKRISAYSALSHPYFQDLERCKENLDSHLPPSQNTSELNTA
# Sequence (P30281 whole entry partner): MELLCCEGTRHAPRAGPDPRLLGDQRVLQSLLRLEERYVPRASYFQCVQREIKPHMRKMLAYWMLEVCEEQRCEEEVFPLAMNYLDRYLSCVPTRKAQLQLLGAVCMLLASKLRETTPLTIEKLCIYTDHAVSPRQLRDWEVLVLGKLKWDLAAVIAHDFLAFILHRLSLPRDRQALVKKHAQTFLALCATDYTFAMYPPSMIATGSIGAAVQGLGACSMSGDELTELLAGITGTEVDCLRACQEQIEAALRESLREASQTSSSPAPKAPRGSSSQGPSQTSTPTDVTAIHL
# experimentalProtocol: Cdk6 kinase inhibition assay with recombinant Cdk6/CyclinD3, Rb substrate, [33P]-ATP filter plate
# testParameters: 25 μM ATP, read-out: Cdk 6 IC50
readoutKind: log10(IC50) (log10 of the value in nM)

compound	log10(IC50)
CC[C@@H](C)n1c2cnccc2c2cnc(Nc3ccc(N4CC[C@@H](O)C4)cn3)nc21 [Example 322]	1.70
CCC(CC)n1c2cnccc2c2cnc(Nc3ccc(N4CCNCC4)cn3)nc21 [Example 161]	1.20
CN(C)C1CCN(c2ccc(Nc3ncc4c5ccccc5n(C5CCCC5)c4n3)nc2)CC1 [Example 309]	1.08
C[C@@H](CO)n1c2cnccc2c2cnc(Nc3ccc(N4CCNCC4)cn3)nc21 [Example 369]	1.46
O=S1(=O)CCC(c2ccc(Nc3ncc4c5ccncc5n(C5CCCC5)c4n3)nc2)CC1 [Example 270]	1.54
C[C@@H](CO)NC1CCN(c2ccc(Nc3ncc4c5ccncc5n(C5CCCC5)c4n3)nn2)CC1 [Example 442]	1.11
CCC(C)(C)n1c2cnccc2c2cnc(Nc3ccc(N4CCC(N(C)C)CC4)nn3)nc21 [Example 156]	1.15
c1cc2c3cnc(Nc4ccc(NCC5CNC5)nn4)nc3n(C3CCCC3)c2cn1 [Example 97]	2.60
c1cc2c3cnc(Nc4ccc(N5CCCCC5)nn4)nc3n(C3CCCC3)c2cn1 [Example 107]	1.68
O=C(c1ccc(Nc2ncc3c4ccncc4n(C4CCCC4)c3n2)nc1)N1CCNCC1 [Example 221]	0.90
c1ccc2c(c1)c1cnc(Nc3ccc(N4CCNCC4)cn3)nc1n2C1CCOCC1 [Example 38]	1.18
O=C(O)CNC1CCN(c2ccc(Nc3ncc4c5ccncc5n(C5CCCC5)c4n3)nc2)CC1 [Example 477]	0.71
Fc1nccc2c3cnc(Nc4ccc(N5CCNCC5)cn4)nc3n(C3CCCC3)c12 [Example 57]	1.23
OC1CCN(C2CCN(c3ccc(Nc4ncc5c6ccncc6n(C6CCCC6)c5n4)nn3)CC2)CC1 [Example 455]	0.95
O[C@H]1CCN(c2ccc(Nc3ncc4c5ccccc5n(C5CCCC5)c4n3)nc2)C1 [Example 305]	2.05
c1cc2c3cnc(Nc4ccc(N5CCCNCC5)nn4)nc3n(C3CCCC3)c2cn1 [Example 117]	0.83
O=C(O)CNC1CCN(c2ccc(Nc3ncc4c5ccncc5n(C5CCCC5)c4n3)nn2)CC1 [Example 478]	0.76

* * *

# subjectOfTest: Cdk4/CyclinD1 (Homo sapiens (Human))
# Sequence (P11802 whole entry): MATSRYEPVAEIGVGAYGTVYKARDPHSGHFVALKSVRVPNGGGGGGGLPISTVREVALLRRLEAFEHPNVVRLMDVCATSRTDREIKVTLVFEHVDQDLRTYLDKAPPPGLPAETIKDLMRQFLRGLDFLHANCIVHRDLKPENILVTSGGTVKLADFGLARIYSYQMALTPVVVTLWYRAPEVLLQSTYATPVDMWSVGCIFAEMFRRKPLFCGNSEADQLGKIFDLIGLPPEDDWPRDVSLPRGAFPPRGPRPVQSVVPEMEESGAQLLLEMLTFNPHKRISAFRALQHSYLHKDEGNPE
# Sequence (P24385 whole entry partner): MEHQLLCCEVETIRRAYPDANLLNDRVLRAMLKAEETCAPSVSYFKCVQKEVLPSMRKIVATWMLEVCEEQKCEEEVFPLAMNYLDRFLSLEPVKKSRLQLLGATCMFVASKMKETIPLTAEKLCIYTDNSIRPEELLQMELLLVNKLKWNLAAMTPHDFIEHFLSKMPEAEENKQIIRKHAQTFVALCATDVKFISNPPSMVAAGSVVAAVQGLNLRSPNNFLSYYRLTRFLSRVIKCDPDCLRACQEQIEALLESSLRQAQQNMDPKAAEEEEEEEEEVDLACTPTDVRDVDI
# experimentalProtocol: Cdk4 kinase inhibition assay with recombinant Cdk4/CyclinD1, Rb substrate, [33P]-ATP filter plate
# testParameters: 25 μM ATP, read-out: Cdk 4 IC50
pIC50: −log10 of the molar value.
Assign class by pIC50: not lower than 8 means Met; lower than 8 means Not met.

compound	assignedClass
c1cc2c3cnc(Nc4ccc(N5CCNCC5)nn4)nc3n(C3CCCC3)c2cn1	Met
OCCNC1CCN(c2ccc(Nc3ncc4c5ccncc5n(C5CCCC5)c4n3)nn2)CC1	Met
N#Cc1ccc2c3cnc(Nc4ccc(N5CCNCC5)cn4)nc3n(C3CCCC3)c2c1	Met
C[C@H](CO)n1c2cnccc2c2cnc(Nc3ccc(N4CCNCC4)nn3)nc21	Not met
C[C@H](C1CCCCC1)n1c2cnccc2c2cnc(Nc3ccc(N4CCNCC4)cn3)nc21	Not met
c1cc2c3cnc(Nc4cnc(N5CCOCC5)cn4)nc3n(C3CCCC3)c2cn1	Not met
CN(C)C1CCN(c2ccc(Nc3ncc4c5ccnc(F)c5n(CC5CC5)c4n3)nn2)CC1	Not met
COCCn1c2cnccc2c2cnc(Nc3ccc(N4CCNCC4)nn3)nc21	Not met
c1cc2c3cnc(Nc4ccc(N5CCC6(CC5)COCCN6)nn4)nc3n(C3CCCC3)c2cn1	Met
FC(F)(F)CNC1CCN(c2ccc(Nc3ncc4c5ccncc5n(C5CCCC5)c4n3)nn2)CC1	Not met
CC(=O)OCC(=O)N1CCN(c2ccc(Nc3ncc4c5ccnc(F)c5n(C5CCCC5)c4n3)nc2)CC1	Not met
NC1CCCN(c2ccc(Nc3ncc4c5ccncc5n(C5CCCC5)c4n3)nn2)C1 (stereo not drawn)	Met
COc1cc2c3cnc(Nc4ccc(N5CCNCC5)cn4)nc3n(C3CCCC3)c2cn1	Not met
OCCNc1ccc(Nc2ncc3c4ccncc4n(C4CCCC4)c3n2)nn1	Met
COc1cc2c3cnc(Nc4ccc(N5CCNCC5)cn4)nc3n(C3CCCC3)c2nn1	Not met
CC[C@@H](C)n1c2cnccc2c2cnc(Nc3ccc(N4CCC(NC)CC4)nn3)nc21	Met
C[C@@H](O)Cn1c2cnccc2c2cnc(Nc3ccc(N4CCNCC4)nn3)nc21	Not met
CC[C@H](C)n1c2cnccc2c2cnc(Nc3ccc(N4CCNC(C)(C)C4)cn3)nc21	Not met
c1cc2c3cnc(Nc4ccc(N5CCNCC5)nn4)nc3n(C3CCC3)c2cn1	Not met
CN(C)CCCN(C)c1ccc(Nc2ncc3c4ccncc4n(C4CCCC4)c3n2)nn1	Not met
c1cc2c3cnc(Nc4ccc(N5CCC(N6CCOCC6)CC5)nn4)nc3n(C3CCCC3)c2cn1	Met

From: patent US8841312B2
